Each entry below carries its reported Mortality.
tested on: Mus musculus; test: Number of mice died at 26.7 mg/kg of peroral dose of compound among the total 6 mice tested; type: functional; conditions: route oral
# answer = number (no unit)

Worked examples follow.
1) CC(=O)O[C@@]12CO[C@@H]1CC[C@@]1(C)[C@@H]3O[C@H](CN4CCOCC4)O[C@@H]3C3=C(C)[C@@H](OC(=O)[C@H](O)[C@@H](NC(=O)OC(C)(C)C)c4cccc(F)n4)C[C@@](O)([C@@H](OCc4ccccc4)[C@@H]12)C3(C)C :: 1
2) CC(=O)O[C@@]12CO[C@@H]1CC[C@@]1(C)[C@@H]3O[C@H](CN4CCOCC4)O[C@@H]3C3=C(C)[C@@H](OC(=O)[C@H](O)[C@@H](NC(=O)OC(C)(C)C)C(C)(C)C)C[C@@](O)([C@@H](OCc4ccccc4)[C@@H]12)C3(C)C :: 6

Qu. Item CC(=O)O[C@@]12CO[C@@H]1CC[C@@]1(C)[C@@H]3O[C@H](CN(C)C)O[C@@H]3C3=C(C)[C@@H](OC(=O)[C@H](O)[C@@H](NC(=O)OC(C)(C)C)c4ccccn4)C[C@@](O)([C@@H](OCc4ccccc4)[C@@H]12)C3(C)C has what recorded Mortality?
Ans. 1

Qu. Next up: CC(=O)O[C@@]12CO[C@@H]1CC[C@@]1(C)[C@@H]3O[C@H](CN4CCOCC4)O[C@@H]3C3=C(C)[C@@H](OC(=O)[C@H](O)[C@@H](NC(=O)OC(C)(C)C)c4nccs4)C[C@@](O)([C@@H](OCc4ccccc4)[C@@H]12)C3(C)C
Ans. 0

###

test system: P388; experiment: Concentration required to inhibit mouse P388 cell line growth by 50% at 72 hr continuous exposure; assay type: functional; conditions: P388, 72 h
assay-metric: log10(GI50) (log10 of the value in ng/mL)
Annotation: log10 of GI50, ng/mL basis.

Recorded log10(GI50), per entry:
1) CC(=O)O[C@@]12CO[C@@H]1C[C@H](O)[C@@]1(C)[C@@H]3OC(CN4CCOCC4)O[C@@H]3C3=C(C)[C@@H](OC(=O)[C@H](O)[C@@H](NC(=O)OC(C)(C)C)c4ccccn4)C[C@@](O)([C@@H](OCc4ccccc4)[C@H]21)C3(C)C (stereo partly specified) :: -0.74
2) CC(=O)O[C@@]12CO[C@@H]1CC[C@@]1(C)[C@@H]3O[C@H](CN4CCOCC4)O[C@@H]3C3=C(C)[C@@H](OC(=O)[C@H](O)[C@@H](NC(=O)OC(C)(C)C)c4cncs4)C[C@@](O)([C@@H](OCc4ccccc4)[C@@H]12)C3(C)C :: -1.40
3) CC(=O)O[C@@]12CO[C@@H]1CC[C@@]1(C)[C@@H]3O[C@H](CN(C)C)O[C@@H]3C3=C(C)[C@@H](OC(=O)[C@H](O)[C@@H](NC(=O)OC(C)(C)C)c4cscn4)C[C@@](O)([C@@H](OCc4ccccc4)[C@@H]12)C3(C)C :: -1.22
4) CC(=O)O[C@H]1C(=O)[C@@]2(C)[C@H]([C@H](OCc3ccccc3)[C@]3(O)C[C@H](OC(=O)[C@H](O)[C@@H](NC(=O)c4ccccc4)c4ccccc4)C(C)=C1C3(C)C)[C@]1(OC(C)=O)CO[C@@H]1C[C@@H]2O :: 0.47
5) CC(=O)O[C@@]12CO[C@@H]1CC[C@@]1(C)[C@@H]3O[C@H](CN4CCOCC4)O[C@@H]3C3=C(C)[C@@H](OC(=O)[C@H](O)[C@@H](NC(=O)OC(C)(C)C)C(C)(C)C)C[C@@](O)([C@@H](OCc4ccccc4)[C@@H]12)C3(C)C :: -0.47

API: the following record is the query input.
Qu. log10(GI50) lookup needed for CC(=O)O[C@@]12CO[C@@H]1CC[C@@]1(C)[C@@H]3O[C@H](CN(C)C)O[C@@H]3C3=C(C)[C@@H](OC(=O)[C@H](O)[C@@H](NC(=O)OC(C)(C)C)C(C)(C)C)C[C@@](O)([C@@H](OCc4ccccc4)[C@@H]12)C3(C)C , thanks.
Ans. -0.14
